B1: Azoarcus group I ribozyme (parent)
chain: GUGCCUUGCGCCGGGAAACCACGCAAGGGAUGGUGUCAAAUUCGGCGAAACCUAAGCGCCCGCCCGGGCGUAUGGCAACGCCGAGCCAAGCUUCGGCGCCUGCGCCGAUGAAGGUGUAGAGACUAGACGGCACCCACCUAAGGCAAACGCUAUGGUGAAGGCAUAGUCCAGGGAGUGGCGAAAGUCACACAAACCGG

variants of: B1; test: reverse-splicing fitness (ratio to wild type); higher = more active; in vitro selection; Mg2+ level not given
endpoint_label: reverse-splicing fitness

Answered cases to consult:
>>> value_observed("C82U A111U A120U C169G U176A")
0.00316
>>> value_observed("C82U A111U A120C C150A C169A")
0.00966
>>> value_observed("C82U A111G A145U C150A C169U U176G")
0.00567
>>> value_observed("C82G A120U C150G C169U U176G")
0.0022
>>> value_observed("C82G A111C A120U A145C C169A")
0.00204
>>> value_observed("A111C A145C C150U C169G")
0.0204
>>> value_observed("C82G A111U A120G A145U C169G U176C")
0.0162
>>> value_observed("A120C A145G C150G C169U U176A")
0.0149

Q) Return value of reverse-splicing fitness for input C82A A111C A120U A145G C150G U176C , no commentary.
A) 0.00851

Q) Return value of reverse-splicing fitness for input A120U A145G C150A C169G , no commentary.
A) 0.0459

Q) Return value of reverse-splicing fitness for input C82A A120U C169G U176G , no commentary.
A) 0.00153

Q) Return value of reverse-splicing fitness for input C82A A111C A120G A145G C150G C169G U176G , no commentary.
A) 0.00603
